Assign pEC50 to each entry below.
# Measured On: CFTR (F508del/MF-HBE cells) (Homo sapiens, UniProt P13569, DEL508-508)
# Construct: human bronchial epithelial (HBE) cells derived from CF subjects heterozygous for F508del and a minimal function CFTR mutation (F508del/MF-HBE); endogenous in cells; host or cells: Primary human bronchial epithelial cells from CF subjects (F508del/MF genotype), differentiated at an air-liquid interface
# Sequence (P13569 with tags, fused parts or gaps DEL508-508): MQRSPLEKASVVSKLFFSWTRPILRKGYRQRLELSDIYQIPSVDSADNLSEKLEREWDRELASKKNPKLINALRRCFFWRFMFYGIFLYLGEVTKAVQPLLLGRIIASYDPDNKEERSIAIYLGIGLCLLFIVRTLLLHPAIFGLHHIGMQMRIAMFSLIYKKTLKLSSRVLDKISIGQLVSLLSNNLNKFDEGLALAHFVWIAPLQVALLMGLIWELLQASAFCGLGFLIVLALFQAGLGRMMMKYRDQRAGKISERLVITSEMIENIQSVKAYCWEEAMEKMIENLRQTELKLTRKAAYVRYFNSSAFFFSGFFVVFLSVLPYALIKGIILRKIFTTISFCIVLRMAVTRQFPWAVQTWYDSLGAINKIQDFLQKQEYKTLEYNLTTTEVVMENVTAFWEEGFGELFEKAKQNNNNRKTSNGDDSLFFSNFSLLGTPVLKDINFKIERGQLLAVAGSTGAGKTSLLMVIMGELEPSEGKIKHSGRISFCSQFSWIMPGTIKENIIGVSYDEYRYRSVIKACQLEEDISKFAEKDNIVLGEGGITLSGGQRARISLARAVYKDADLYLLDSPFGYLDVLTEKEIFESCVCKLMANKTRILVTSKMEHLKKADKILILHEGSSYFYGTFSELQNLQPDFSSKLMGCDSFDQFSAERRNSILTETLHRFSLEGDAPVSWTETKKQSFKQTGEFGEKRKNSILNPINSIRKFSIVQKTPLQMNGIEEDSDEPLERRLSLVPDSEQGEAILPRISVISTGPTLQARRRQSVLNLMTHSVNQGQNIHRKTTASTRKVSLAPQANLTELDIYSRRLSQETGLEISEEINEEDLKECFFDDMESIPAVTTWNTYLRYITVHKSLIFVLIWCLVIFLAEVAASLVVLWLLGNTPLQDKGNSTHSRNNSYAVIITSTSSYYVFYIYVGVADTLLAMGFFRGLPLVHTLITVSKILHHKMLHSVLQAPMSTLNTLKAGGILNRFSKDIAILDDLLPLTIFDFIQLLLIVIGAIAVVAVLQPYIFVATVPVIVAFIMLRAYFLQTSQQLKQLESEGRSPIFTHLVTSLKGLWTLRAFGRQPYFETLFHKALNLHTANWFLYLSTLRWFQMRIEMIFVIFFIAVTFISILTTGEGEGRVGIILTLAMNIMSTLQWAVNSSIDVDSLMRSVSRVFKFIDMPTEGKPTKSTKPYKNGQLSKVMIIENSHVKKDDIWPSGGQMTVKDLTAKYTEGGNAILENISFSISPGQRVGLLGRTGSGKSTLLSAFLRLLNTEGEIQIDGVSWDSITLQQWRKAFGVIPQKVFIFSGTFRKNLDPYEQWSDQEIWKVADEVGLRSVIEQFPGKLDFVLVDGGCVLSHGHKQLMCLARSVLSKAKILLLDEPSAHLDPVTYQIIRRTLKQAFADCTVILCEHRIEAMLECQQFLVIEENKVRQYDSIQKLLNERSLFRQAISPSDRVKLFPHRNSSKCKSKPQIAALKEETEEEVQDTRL
# Assay Remarks: Ussing chamber assay of CFTR-mediated short-circuit currents, Assay C (0.026 μM to 25 μM, 6 concentrations)
# Type: cell-based
# Test Conditions: with 33 nM potentiator and 18 μM Tezacaftor, 20% human serum
pEC50: −log10 of the molar value.

q: Identify the measured pEC50 of Cc1cccc(C)c1-c1cc2nc(n1)NS(=O)(=O)c1cccc(c1)C(=O)N(Cc1cnc3cc(C(C)(C)C)n(C)c3n1)[C@H](C1CCCO1)CO2 (single isomer, unassigned) [IV-97] for CFTR (F508del/MF-HBE cells) (Homo sapiens, UniProt P13569, DEL508-508).
a: > 6.00

q: Identify the measured pEC50 of Cc1cccc(C)c1-c1nc2nc(c1C)OC[C@@H](COC(C)C)N(Cc1cnc3cc(C4(C)CC4)n(C)c3n1)C(=O)c1cccc(c1)S(=O)(=O)N2 [IV-2] for CFTR (F508del/MF-HBE cells) (Homo sapiens, UniProt P13569, DEL508-508).
a: > 6.00

q: Identify the measured pEC50 of COCc1c(C(C)(C)C)n(C)c2nc(CN3C(=O)c4cccc(c4)S(=O)(=O)Nc4nc(cc(-c5c(C)cccc5C)n4)OC[C@H]3CC34CC(C3)C4)cnc12 [IV-89] for CFTR (F508del/MF-HBE cells) (Homo sapiens, UniProt P13569, DEL508-508).
a: > 6.00

q: Identify the measured pEC50 of Cc1cccc(C)c1-c1cc2nc(n1)NS(=O)(=O)c1cccc(c1)C(=O)N(Cc1cnc3c(n1)C(=O)N(C(C)C)C3)[C@H](CC1(C)CC1)CO2 [III-21] for CFTR (F508del/MF-HBE cells) (Homo sapiens, UniProt P13569, DEL508-508).
a: 5.52 to 6.00

---

# Measured On: CFTR (F508del/MF-HBE cells) (Homo sapiens, UniProt P13569, DEL508-508)
# Construct: human bronchial epithelial (HBE) cells derived from CF subjects heterozygous for F508del and a minimal function CFTR mutation (F508del/MF-HBE); endogenous in cells; host or cells: Primary human bronchial epithelial cells from CF subjects (F508del/MF genotype), differentiated at an air-liquid interface
# Assay Remarks: Ussing chamber assay of CFTR-mediated short-circuit currents, Assay C (0.026 μM to 25 μM, 6 concentrations)
# Type: cell-based
# Test Conditions: with 33 nM potentiator and 18 μM Tezacaftor, 20% human serum
Assign EC50 to each entry below.

q: Any idea what its EC50 is? The molecule is Cc1cccc(C)c1-c1nc2nc(c1C)OC[C@@H](CC13CC(C1)C3)N(Cc1cnc3oc(C4(C)CC4)cc3n1)C(=O)c1cccc(c1)S(=O)(=O)N2
a: < 1000 nM

q: Any idea what its EC50 is? The molecule is CCc1cccc(CC)c1-c1nc2nc(c1C)OC[C@@H](CC(C)(C)C)N(Cc1cnc3cc(C(C)(C)C)n(C)c3n1)C(=O)c1cccc(c1)S(=O)(=O)N2
a: < 1000 nM

q: Any idea what its EC50 is? The molecule is Cc1cccc(CC(C)C)c1-c1nc2nc(c1C)OC[C@@H]([C@@H]1CCCO1)N(Cc1cnc3cc(C(C)(C)C)n(C)c3n1)C(=O)c1cccc(c1)S(=O)(=O)N2 (atropisomer, axis not shown)
a: < 1000 nM

q: Any idea what its EC50 is? The molecule is Cc1cccc(C)c1-c1cc2nc(n1)NS(=O)(=O)c1cccc(c1)C(=O)N(Cc1cnc3cc(C(C)(C)C)n(C)c3n1)[C@H](COC(C)C)CO2
a: < 1000 nM

q: Any idea what its EC50 is? The molecule is COc1c2nc(nc1-c1c(C)cccc1C)NS(=O)(=O)c1cccc(c1)C(=O)N(Cc1cnc3cc(C4(C(F)(F)F)CC4)n(C)c3n1)[C@H](COC(C)C)CO2
a: 1000 to 3000 nM

q: Any idea what its EC50 is? The molecule is Cc1cccc(C)c1-c1cc2nc(n1)NS(=O)(=O)c1cccc(c1)C(=O)N(Cc1cnc3cc(C4(C(F)(F)F)CC4)n(C)c3n1)[C@H](COC(C)C)CO2
a: 1000 to 3000 nM

q: Any idea what its EC50 is? The molecule is Cc1cccc(C(C)C)c1-c1nc2nc(c1C)OC[C@@H](CC(C)(C)C)N(Cc1cnc3cc(C(C)C)n(C)c3n1)C(=O)c1cccc(c1)S(=O)(=O)N2 (atropisomer, axis not shown)
a: 3000 to 30000 nM
